Reported Metric: melting point

Below: 6 molecules and their reported melting point.
INSERT INTO assay_data (molecule, value_reported) VALUES
  ('CC(Oc1ccc(OC(C)(C)C(=O)O)cc1)c1cccc2nn(-c3ccc(C(F)(F)F)cc3)cc12 (racemic)', '86 to 88 °C'),
  ('Cc1cc(SC(C)c2cccc3nn(-c4ccc(C(F)(F)F)cc4)cc23)ccc1OC(C)(C)C(=O)O (racemic)', '153 to 155 °C'),
  ('Cc1cc(SCc2cccc3c2cnn3-c2ccc(C(F)(F)F)cc2)ccc1OCC(=O)O', '132 to 134 °C'),
  ('CC(C)(Oc1ccc(SCc2cccc3c2cnn3-c2ccc(C(F)(F)F)cc2)cc1)C(=O)O', '158 to 160 °C'),
  ('CC(C)(Oc1ccc(SCc2cccc3cn(-c4ccc(C(F)(F)F)cc4)nc23)cc1)C(=O)O', '140 to 142 °C'),
  ('CC(C)(Oc1ccc(OCCc2cccc3cn(-c4ccc(C(F)(F)F)cc4)nc23)cc1)C(=O)O', '122 to 124 °C');

input: Quote melting point reported for Cc1cc(SC(C)c2cccc3c2cnn3-c2ccc(C(F)(F)F)cc2)ccc1OC(C)(C)C(=O)O (racemic) please.
output: 85 to 87 °C

input: Quote melting point reported for CC(C)(Sc1ccc(OC(CCC(F)(F)F)c2cccc3c2cnn3-c2ccc(C(F)(F)F)cc2)cc1)C(=O)O (racemic) please.
output: > 260 °C

input: Quote melting point reported for CCc1cc(OC(C)c2cccc3cn(-c4ccc(C(F)(F)F)cc4)nc23)ccc1CCC(=O)O (racemic) please.
output: 61 to 63 °C

input: Quote melting point reported for Cc1cc(OC(C)c2cccc3c2cnn3-c2ccc(C(F)(F)F)cc2)ccc1OC(C)(C)C(=O)O (racemic) please.
output: 82 to 85 °C

input: Quote melting point reported for `Cc1cc(OCc2ccc3cn(-c4ccc(C(F)(F)F)cc4)nc3c2)ccc1CCC(=O)O` please.
output: 181 to 183 °C

input: Quote melting point reported for `Cc1cc(SCc2cccc3c2cnn3-c2ccc(C(F)(F)F)cc2)ccc1OC(C)(C)C(=O)O` please.
output: 62 to 66 °C

* * *

Reported Metric: melting point

Below: 5 molecules and their reported melting point.
INSERT INTO results (molecule, value_reported) VALUES
  ('Cc1cc(SCc2ccc3cn(-c4ccc(C(F)(F)F)cc4)nc3c2)ccc1OC(C)(C)C(=O)O', '116 to 118 °C'),
  ('CC(C)(Oc1ccc(OCc2ccc3nn(-c4ccc(C(F)(F)F)cc4)cc3c2)cc1)C(=O)O', '203 to 205 °C'),
  ('Cc1cc(SCCc2cccc3cn(-c4ccc(C(F)(F)F)cc4)nc23)ccc1OC(C)(C)C(=O)O', '141 to 143 °C'),
  ('Cc1cc(SC(C)(C)c2cccc3cn(-c4ccc(C(F)(F)F)cc4)nc23)ccc1CCC(=O)O', '68 to 70 °C'),
  ('Cc1cc(SCc2cccc3cn(-c4ccc(C(F)(F)F)cc4)nc23)ccc1OCC(=O)O', '79 to 81 °C');

input: Quote melting point reported for `CCc1cc(SCc2ccc3cn(-c4ccc(C(F)(F)F)cc4)nc3c2)ccc1OCC(=O)O` please.
output: 119 to 121 °C

input: Quote melting point reported for `Cc1cc(OCc2cccc3c2cnn3-c2ccc(C(F)(F)F)cc2)ccc1OC(C)(C)C(=O)O` please.
output: 100 to 104 °C

input: Quote melting point reported for CC(Sc1ccc(OC(C)(C)C(=O)O)cc1)c1cccc2nn(-c3ccc(C(F)(F)F)cc3)cc12 (racemic) please.
output: 148 to 150 °C
